- Target or system: Disks large homolog 4 (Homo sapiens)
- Measurement description: Binding affinity to recombinant 15N-labelled PSD95-PDZ1 domain expressed in Escherichia coli BL21 assessed as chemical shift perturbation by NMR spectra analysis
The source made the active and inactive calls. The rule behind the calls is not given here.
Form entry, call: pick from Y (active), N (inactive)

Solved entries:
> print(dat)
                 smiles.representation                      target.or.system  group
1   Cc1cc2c(C)c(C(=O)O)n(C)c2cc1C(=O)O  Disks large homolog 4 (Homo sapiens)      N
2  COC(=O)c1cc2[nH]c(C(=O)O)c(C)c2cc1C  Disks large homolog 4 (Homo sapiens)      N
3   Cc1cc2c(C)c(C(=O)O)[nH]c2cc1C(=O)O  Disks large homolog 4 (Homo sapiens)      Y
4  COC(=O)c1cc2c(C)c(C(=O)O)[nH]c2cc1C  Disks large homolog 4 (Homo sapiens)      N
5      Cc1cc2cc(C(=O)O)[nH]c2cc1C(=O)O  Disks large homolog 4 (Homo sapiens)      N

// query Given `Cc1c(C(=O)O)[nH]c2ccc(C(=O)O)cc12` , state the outcome it received in this test.
// result Y

// query Given `CCOC(=O)c1ccc2[nH]c(C(=O)O)c(C)c2c1` , state the outcome it received in this test.
// result N

// query Given `Cc1cc2[nH]c(C(=O)O)c(C)c2cc1C(=O)O` , state the outcome it received in this test.
// result Y
